Target: Human FAAH (Homo sapiens)
Construct: made in house
Sequence (O00519 1-579): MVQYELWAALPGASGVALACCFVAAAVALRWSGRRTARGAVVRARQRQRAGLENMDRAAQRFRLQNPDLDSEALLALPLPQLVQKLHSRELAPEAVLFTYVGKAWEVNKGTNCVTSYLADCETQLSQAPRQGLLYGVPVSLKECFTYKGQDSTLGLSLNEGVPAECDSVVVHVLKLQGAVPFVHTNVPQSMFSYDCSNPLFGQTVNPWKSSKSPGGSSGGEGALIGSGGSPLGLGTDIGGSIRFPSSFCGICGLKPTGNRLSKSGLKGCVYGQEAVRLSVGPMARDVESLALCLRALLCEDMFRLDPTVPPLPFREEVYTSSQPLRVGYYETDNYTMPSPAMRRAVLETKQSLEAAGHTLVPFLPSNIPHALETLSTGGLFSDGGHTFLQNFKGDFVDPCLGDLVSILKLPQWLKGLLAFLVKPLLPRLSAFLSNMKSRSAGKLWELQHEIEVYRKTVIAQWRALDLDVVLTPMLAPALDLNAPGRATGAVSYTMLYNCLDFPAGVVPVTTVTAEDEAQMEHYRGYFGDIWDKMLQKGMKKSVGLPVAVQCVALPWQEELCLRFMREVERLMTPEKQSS
Test: FAAH assay (glutamate dehydrogenase-coupled, oleamide substrate, absorbance at 340 nm)
Assay type: biochemical
Conditions: irreversible inhibition, 1-4 nM FAAH, pH 7.4, 30° C., 90 min, read-out: hFAAH kinact/Ki
Quick reference for kinact/KI among some compounds
Field: numeric (M⁻¹ s⁻¹). Do not append units.

| compound | numeric-result |
| --- | --- |
| O=C(Nc1cccnn1)N1CCC(=Cc2cc(Br)cc(Oc3ccc(C(F)(F)F)cn3)c2)CC1 [Example 63] | 2530 |

INPUT: Fill in the recorded kinact/KI for this compound, with Human FAAH (Homo sapiens) as test system: O=C(NC(=O)N1CCC(=Cc2cccc(Oc3ccc(C(F)(F)F)cn3)c2)CC1)c1ccccn1 [Example 15]
OUTPUT: 12900

INPUT: Checklist item: kinact/KI tested on Human FAAH (Homo sapiens), entry O=C(Nc1ccc(O)nc1)N1CCC(=Cc2cccc(Oc3ccc(C(F)(F)F)cn3)c2)CC1 [Example 142] , value?
OUTPUT: 246

INPUT: kinact/KI of O=C(Nc1cccnn1)N1CCC(=Cc2cccc(Oc3ccc(N4CCCC4)cn3)c2)CC1 [Example 85] on Human FAAH (Homo sapiens)?
OUTPUT: 1540

INPUT: Give recorded kinact/KI with Human FAAH (Homo sapiens) for the following compound: COc1cnc(NC(=O)N2CCC(=Cc3cccc(Oc4ccc(C(F)(F)F)cn4)c3)CC2)cn1 [Example 12]
OUTPUT: 10800

INPUT: Report kinact/KI for Cc1noc(C)c1NC(=O)N1CCC(=Cc2cccc(Oc3ccc(C(F)(F)F)cn3)c2)CC1 [Example 133] tested on Human FAAH (Homo sapiens).
OUTPUT: 36.8

----------
Target: Human FAAH (Homo sapiens, UniProt O00519)
Construct: made in house
Sequence (O00519 1-579): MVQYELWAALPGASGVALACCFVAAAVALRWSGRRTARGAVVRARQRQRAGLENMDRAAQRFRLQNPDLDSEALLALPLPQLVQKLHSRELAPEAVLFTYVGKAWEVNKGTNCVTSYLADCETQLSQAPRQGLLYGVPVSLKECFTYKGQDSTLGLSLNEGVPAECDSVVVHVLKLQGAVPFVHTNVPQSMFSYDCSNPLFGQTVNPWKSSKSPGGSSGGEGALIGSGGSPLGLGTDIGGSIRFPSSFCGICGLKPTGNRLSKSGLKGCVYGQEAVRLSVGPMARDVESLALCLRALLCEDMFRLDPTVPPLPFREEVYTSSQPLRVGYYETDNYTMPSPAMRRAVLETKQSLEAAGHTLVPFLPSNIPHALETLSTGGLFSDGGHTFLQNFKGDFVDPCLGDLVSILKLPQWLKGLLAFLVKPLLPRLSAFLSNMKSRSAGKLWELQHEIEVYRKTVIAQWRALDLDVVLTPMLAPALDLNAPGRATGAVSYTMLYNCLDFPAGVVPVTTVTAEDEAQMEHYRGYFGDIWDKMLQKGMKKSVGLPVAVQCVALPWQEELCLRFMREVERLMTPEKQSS
Assay: FAAH assay (glutamate dehydrogenase-coupled, oleamide substrate, absorbance at 340 nm)
Assay type: biochemical
Conditions: irreversible inhibition, 1-4 nM FAAH, pH 7.4, 30° C., 90 min, read-out: hFAAH kinact/Ki
readout-kind: log10 kinact/KI (log10 of the value in M⁻¹ s⁻¹)
The base-10 logarithm of kinact/KI, taken with kinact/KI in M⁻¹ s⁻¹, is what appears here.

INPUT: What does the record list as log10 kinact/KI for O=C(Nc1onc2ccccc12)N1CCC(=Cc2cccc(Oc3ccc(C(F)(F)F)cn3)c2)CC1 [Example 6] ?
OUTPUT: 3.40

INPUT: Consider the compound O=C(Nc1cccnn1)N1CCC(=Cc2cccc(Oc3ccc(C(F)(F)F)nc3)c2)CC1 [Example 57] and give its measured log10 kinact/KI.
OUTPUT: 4.23

INPUT: I'd like to know its log10 kinact/KI. The compound in question is O=C(Nc1ncc(Br)cc1CO)N1CCC(=Cc2cccc(Oc3ccc(C(F)(F)F)cn3)c2)CC1 [Example 132]
OUTPUT: 2.02

INPUT: Returns the measured log10 kinact/KI for the input compound. Input: O=C(Nc1cccnc1)N1CCC(=C(Br)c2cccc(Oc3ccc(C(F)(F)F)cn3)c2)CC1 [Example 66]
OUTPUT: 3.19

INPUT: Which log10 kinact/KI reading was recorded for the compound O=C(Nc1cccc(CO)c1)N1CCC(=Cc2cccc(Oc3ccc(C(F)(F)F)cn3)c2)CC1 [Example 82] ?
OUTPUT: 2.99

----------
molecular target: Human FAAH (Homo sapiens); construct: made in house; test: FAAH assay (glutamate dehydrogenase-coupled, oleamide substrate, absorbance at 340 nm); assay type: biochemical; details: irreversible inhibition, 1-4 nM FAAH, pH 7.4, 30° C., 90 min, read-out: hFAAH kinact/Ki
readout-kind: kinact/KI (M⁻¹ s⁻¹)
Write down the numeric answer in M⁻¹ s⁻¹ and omit the unit.

| compound | kinact/KI (M⁻¹ s⁻¹) |
| --- | --- |
| Cc1noc(NC(=O)N2CCC(=Cc3cccc(Oc4ccc(C(F)(F)F)cc4)c3)CC2)c1C [Example 55] | 1610 |
| O=C(Nc1ccccc1)N1CCC(=Cc2cccc(Oc3ccc(C(F)(F)F)cn3)c2)CC1 [Example 10] | 3070 |
| O=C(Nc1cccnn1)N1CCC(=Cc2cccc(Oc3nc(-c4ccccc4)ns3)c2)CC1 [Example 125] | 140 |
| COc1cncc(NC(=O)N2CCC(=Cc3cccc(Oc4ccc(C(F)(F)F)cn4)c3)CC2)c1 [Example 130] | 944 |

INPUT: Report kinact/KI for Cc1nnc(Oc2cccc(C=C3CCN(C(=O)Nc4cccnn4)CC3)c2)c2ccccc12 [Example 119] please.
OUTPUT: 77.7

INPUT: Entry O=C(Nc1ccc(Cl)nn1)N1CCC(=Cc2cccc(Oc3ccc(C(F)(F)F)cn3)c2)CC1 [Example 84] has what kinact/KI?
OUTPUT: 5590

INPUT: Given the entry C#CCCCOc1ccc(Oc2cccc(C=C3CCN(C(=O)Nc4cccnn4)CC3)c2)nc1 [Example 90] , report its measured kinact/KI.
OUTPUT: 7600

INPUT: Given the compound COc1ccc(NC(=O)N2CCC(=C(F)c3cccc(Oc4ccc(C(F)(F)F)cn4)c3)CC2)cn1 [Example 71] , what is its reported kinact/KI?
OUTPUT: 777

INPUT: Request the reported kinact/KI associated with Cc1cc(C(F)(F)F)cc(Oc2cccc(C=C3CCN(C(=O)Nc4cccnn4)CC3)c2)n1 [Example 116]
OUTPUT: 40.8

INPUT: Field request: kinact/KI | item: O=C(Nc1cccnn1)N1CCC(=Cc2cccc(Oc3ccc(OCC(F)(F)F)cn3)c2)CC1 [Example 50]
OUTPUT: 5670

INPUT: Given Cc1cccnc1Oc1cccc(C=C2CCN(C(=O)Nc3cccnn3)CC2)c1 [Example 43] , state its recorded kinact/KI.
OUTPUT: 1410

INPUT: Would you mind telling me what kinact/KI value was observed for CCOc1cc(C=C2CCN(C(=O)Nc3cccnc3)CC2)cc(Oc2ccc(C(F)(F)F)cn2)c1 [Example 58] ?
OUTPUT: 322

INPUT: Recorded kinact/KI of O=C(Nc1cccnc1)N1CCC(=Cc2cccc(Oc3ccc(N4CCC4)cn3)c2)CC1 [Example 88] , please.
OUTPUT: 3580

INPUT: Which kinact/KI value is on record for CCOc1ccc(Oc2cccc(C=C3CCN(C(=O)Nc4cccnn4)CC3)c2)nc1 [Example 48] ?
OUTPUT: 5830

INPUT: Reported kinact/KI for O=C(Nc1ccccc1F)N1CCC(=Cc2cccc(Oc3ccc(C(F)(F)F)cn3)c2)CC1 [Example 29] : what is it?
OUTPUT: 3370

INPUT: Which measured kinact/KI value corresponds to Cc1ccnc(Oc2cccc(C=C3CCN(C(=O)Nc4cccnc4)CC3)c2)c1 [Example 72] ?
OUTPUT: 681
